species on record: Homo sapiens; experiment: Selectivity index, ratio of IC50 for human recombinant JAK2 to IC50 for human recombinant JAK1
READOUT_LABEL: Ratio IC50

smiles_record=O=C(Nc1nc2cccc(-c3cccc(OCc4ccccc4)c3)n2n1)C1CC1 readout_label="Ratio IC50" numeric_result=1

P. O=C(Nc1nc2cccc(-c3cccc4ncccc34)n2n1)C1CC1
Q. CCOc1ccc(-c2cncc3nc(NC(=O)C4CC4)nn23)cc1
R. N#Cc1ccc(OCC2CN(c3ccc(-c4cccc5nc(NC(=O)C6CC6)nn45)cc3)C2)cc1
S. CCOc1ccc(-c2cccc3nc(NC(=O)C4CC4)nn23)cc1
input: Put the items in order so that reported Ratio IC50 rises from first to last. API: response body holds the labels in the requested order.
output: P, Q, S, R
(P: 0.7, Q: 1, S: 2, R: 7.5)
